assay: in vivo; conditions: NOD, mouse
Observed Property: half-life

Summary for this molecule, NS(=O)(=O)OC[C@H]1O[C@@H](n2cnc3c(NC(=O)N[C@@H](CCC(=O)O)C(=O)O)ncnc32)[C@H](O)[C@@H]1O [P-AMS] : half-life is 30 to 40 min

---

assay: Cell permeability in CACO-2 cells; assay type: in vitro ADME; settings: human, Caco-2, with Ver (concentration not stated); + Ver; read-out: Efflux Ratio (B-A/A-B)
Observed Property: efflux ratio
Answers are plain numbers.

The measured efflux ratio associated with CN(C)C(=O)C(CCN1CCC(O)(c2ccc(Cl)cc2)CC1)(c1ccccc1)c1ccccc1 [Loperamide] reads 0.7
